- Tested on: HepG2 tumor cells
- protocol.details: In vitro tumor cell proliferation inhibition test (CCK-8), HepG2
- Format: cell-based
- assay.context: Homo sapiens, HepG2, 76 hours incubation
Numbered stars: 1 amine (or outer) side, 2 acyl side, 3 side chain; on linkers, the order of the positions; unused ones are H or OH. Square brackets hold non-standard residues; d marks the D form. Peptide text beside a SMILES is read from it. X1 = CO[C@H]([C@@H](C)C(=O)[*:2])[C@@H]1C[C@@H]2C[C@@H]2N1[*:1]; X2 = CO[C@H]([C@@H](C)C(=O)[*:2])[C@@H]1CC2(CC2)CN1[*:1]; X4 = C=C1C[C@@H]([C@H](OC)[C@@H](C)C(=O)[*:2])N([*:1])C1; Dolaproine = CO[C@@H]([C@@H]1CCCN1)[C@@H](C)C(=O)O; Phe(2,4-Cl2) = N[C@@H](Cc1ccc(Cl)cc1Cl)C(=O)O; Dil = CC[C@H](C)[C@H](NC)[C@@H](CC(=O)O)OC; Phe(3-Cl) = N[C@@H](Cc1cccc(Cl)c1)C(=O)O; Phe(2-Cl) = N[C@@H](Cc1ccccc1Cl)C(=O)O; Phe(3-F) = N[C@@H](Cc1cccc(F)c1)C(=O)O; Phe(2-F) = N[C@@H](Cc1ccccc1F)C(=O)O; Phe(2-Me) = Cc1ccccc1C[C@H](N)C(=O)O; 2Thi = N[C@@H](Cc1cccs1)C(=O)O; NMeV = CN[C@H](C(=O)O)C(C)C
Classify on IC50 using Low: < 10 nM; Medium: ≥ 10 nM and < 60 nM; High: ≥ 60 nM

compound	class.assignment
CC[C@H](C)[C@@H]([C@@H](CC(=O)N1CCC[C@H]1[C@H](OC)[C@@H](C)C(=O)N[C@@H](Cc1ccc(Cl)cc1Cl)C(=O)O)OC)N(C)C(=O)[C@@H](NC(=O)[C@@H](NC)C(C)C)C(C)C [Compound 33] (H-[NMeV]V[Dil][Dolaproine][Phe(2,4-Cl2)]-OH)	Low
CC[C@H](C)[C@@H]([C@@H](CC(=O)N1CC2(CC2)C[C@H]1[C@H](OC)[C@@H](C)C(=O)N[C@@H](Cc1ccccc1)C(=O)O)OC)N(C)C(=O)[C@@H](NC(=O)[C@@H](NC)C(C)C)C(C)C [Compound 13] (H-[NMeV]V[Dil][X2]F-OH)	Medium
CC[C@H](C)[C@@H]([C@@H](CC(=O)N1[C@H]2C[C@H]2C[C@H]1[C@H](OC)[C@@H](C)C(=O)N[C@@H](Cc1ccccc1Cl)C(=O)O)OC)N(C)C(=O)[C@@H](NC(=O)[C@@H](NC)C(C)C)C(C)C [Compound 2] (H-[NMeV]V[Dil][X1][Phe(2-Cl)]-OH)	Low
CC[C@H](C)[C@@H]([C@@H](CC(=O)N1CCC[C@H]1[C@H](OC)[C@@H](C)C(=O)N[C@@H](Cc1cccc(F)c1)C(=O)O)OC)N(C)C(=O)[C@@H](NC(=O)[C@@H](NC)C(C)C)C(C)C [Compound 32] (H-[NMeV]V[Dil][Dolaproine][Phe(3-F)]-OH)	Medium
CC[C@H](C)[C@@H]([C@@H](CC(=O)N1[C@H]2C[C@H]2C[C@H]1[C@H](OC)[C@@H](C)C(=O)N[C@@H](Cc1ccccc1F)C(=O)O)OC)N(C)C(=O)[C@@H](NC(=O)[C@@H](NC)C(C)C)C(C)C [Compound 7] (H-[NMeV]V[Dil][X1][Phe(2-F)]-OH)	High
C=C1C[C@@H]([C@H](OC)[C@@H](C)C(=O)N[C@@H](Cc2ccccc2)C(=O)O)N(C(=O)C[C@@H](OC)[C@H]([C@@H](C)CC)N(C)C(=O)[C@@H](NC(=O)[C@@H](NC)C(C)C)C(C)C)C1 [Compound 9] (H-[NMeV]V[Dil][X4]F-OH)	Medium
CC[C@H](C)[C@@H]([C@@H](CC(=O)N1[C@H]2C[C@H]2C[C@H]1[C@H](OC)[C@@H](C)C(=O)N[C@@H](Cc1ccccc1)C(=O)O)OC)N(C)C(=O)[C@@H](NC(=O)[C@@H](NC)C(C)C)C(C)C [Compound 1] (H-[NMeV]V[Dil][X1]F-OH)	Low
CC[C@H](C)[C@@H]([C@@H](CC(=O)N1CCC[C@H]1[C@H](OC)[C@@H](C)C(=O)N[C@@H](Cc1cccc(Cl)c1)C(=O)O)OC)N(C)C(=O)[C@@H](NC(=O)[C@@H](NC)C(C)C)C(C)C [Compound 31] (H-[NMeV]V[Dil][Dolaproine][Phe(3-Cl)]-OH)	High
CC[C@H](C)[C@@H]([C@@H](CC(=O)N1CCC[C@H]1[C@H](OC)[C@@H](C)C(=O)N[C@@H](Cc1cccs1)C(=O)O)OC)N(C)C(=O)[C@@H](NC(=O)[C@@H](NC)C(C)C)C(C)C [Compound 35] (H-[NMeV]V[Dil][Dolaproine][2Thi]-OH)	Medium
CC[C@H](C)[C@@H]([C@@H](CC(=O)N1[C@H]2C[C@H]2C[C@H]1[C@H](OC)[C@@H](C)C(=O)N[C@@H](Cc1cccs1)C(=O)O)OC)N(C)C(=O)[C@@H](NC(=O)[C@@H](NC)C(C)C)C(C)C [Compound 16] (H-[NMeV]V[Dil][X1][2Thi]-OH)	Medium
CC[C@H](C)[C@@H]([C@@H](CC(=O)N1CC2(CC2)C[C@H]1[C@H](OC)[C@@H](C)C(=O)N[C@@H](Cc1ccccc1F)C(=O)O)OC)N(C)C(=O)[C@@H](NC(=O)[C@@H](NC)C(C)C)C(C)C [Compound 11] (H-[NMeV]V[Dil][X2][Phe(2-F)]-OH)	Low
CC[C@H](C)[C@@H]([C@@H](CC(=O)N1CCC[C@H]1[C@H](OC)[C@@H](C)C(=O)N[C@@H](Cc1ccccc1C)C(=O)O)OC)N(C)C(=O)[C@@H](NC(=O)[C@@H](NC)C(C)C)C(C)C [Compound 34] (H-[NMeV]V[Dil][Dolaproine][Phe(2-Me)]-OH)	Medium
CC[C@H](C)[C@@H]([C@@H](CC(=O)N1CCC[C@H]1[C@H](OC)[C@@H](C)C(=O)N[C@@H](Cc1ccccc1F)C(=O)O)OC)N(C)C(=O)[C@@H](NC(=O)[C@@H](NC)C(C)C)C(C)C [Compound 25] (H-[NMeV]V[Dil][Dolaproine][Phe(2-F)]-OH)	High
